- ASSAY PROTOCOL: Pharmacokinetics from metabolite-corrected arterial plasma TACs after oral administration
- Assay type: in vivo, Sprague Dawley Rats
- MEASUREMENT PARAMETERS: Sprague Dawley, rat, arterial plasma, 1 ug/kg, read-out: MRT mean residence time (converted)

TEST SMILES | MRT / min
COc1ccc(SCc2cn(CCN(C)C)nn2)cc1 | 8.51

----------
- ASSAY PROTOCOL: Pharmacokinetics from metabolite-corrected arterial plasma TACs after oral administration
- Type: in vivo, Sprague Dawley Rats
- MEASUREMENT PARAMETERS: Sprague Dawley, rat, arterial plasma, both groups (1 µg/Kg and 5 mg/Kg) pooled together, read-out: t1/2 terminal half-life

COMPOUND | half-life
COc1ccc(SCc2cn(CCN(C)C)nn2)cc1 [AHK2] | 11.3 min

----------
- ASSAY PROTOCOL: Pharmacokinetics from metabolite-corrected arterial plasma TACs after intravenous administration
- Assay type: in vivo, Sprague Dawley Rats
- MEASUREMENT PARAMETERS: Sprague Dawley, rat, arterial plasma, iv, 5 mg/kg, intravenous, 5 mg/Kg, n = 5; read-out: Vss volume of distribution at the steady state
- Method: Anaesthesia was induced with 5% isoflurane (IsoFlo®, Abbott Laboratories, Abbott Park, IL, USA) and maintained by 2% of isoflurane in 100% O2. […] The femoral artery catheter, the gamma detector, the peristaltic pump, and the femoral vein catheter were thus connected in series, to enable the extracorporeal circulation of blood (flow 150 μL/s from femoral artery to femoral vein) and continuous measurement of radioactivity in the blood (Figure 1). […]

TEST SMILES | Vd
COc1ccc(SCc2cn(CCN(C)C)nn2)cc1 | 1.13 L

----------
- ASSAY PROTOCOL: Pharmacokinetics from metabolite-corrected arterial plasma TACs after intravenous administration
- Format: in vivo, Sprague Dawley Rats
- MEASUREMENT PARAMETERS: Sprague Dawley, rat, arterial plasma, iv, 5 mg/kg, intravenous, 5 mg/Kg, n = 5; read-out: t1/2 terminal half-life
QUANTITY KIND: half-life (min)

TEST SMILES | QUANTITY KIND | MEASURED VALUE
COc1ccc(SCc2cn(CCN(C)C)nn2)cc1 | half-life | 13.6

----------
- ASSAY PROTOCOL: Pharmacokinetics from metabolite-corrected arterial plasma TACs after intravenous administration
- Type: in vivo, Sprague Dawley Rats
- MEASUREMENT PARAMETERS: Sprague Dawley, rat, arterial plasma, iv, 1 ug/kg, intravenous, 1 µg/Kg, n = 5; read-out: t1/2 terminal half-life
- Method: Anaesthesia was induced with 5% isoflurane (IsoFlo®, Abbott Laboratories, Abbott Park, IL, USA) and maintained by 2% of isoflurane in 100% O2. […] The femoral artery catheter, the gamma detector, the peristaltic pump, and the femoral vein catheter were thus connected in series, to enable the extracorporeal circulation of blood (flow 150 μL/s from femoral artery to femoral vein) and continuous measurement of radioactivity in the blood (Figure 1). […]

TEST SMILES | UNIT SYMBOL | half-life
COc1ccc(SCc2cn(CCN(C)C)nn2)cc1 | min | 11.7

----------
- ASSAY PROTOCOL: Pharmacokinetics from metabolite-corrected arterial plasma TACs after intravenous administration
- Type: in vivo, Sprague Dawley Rats
- MEASUREMENT PARAMETERS: Sprague Dawley, rat, arterial plasma, iv, both groups (1 µg/Kg and 5 mg/Kg) pooled together; read-out: Vss volume of distribution at the steady state

TEST SMILES | UNIT SYMBOL | Vd
COc1ccc(SCc2cn(CCN(C)C)nn2)cc1 | L | 1.08

src = paper PMC9953224
